Hey, just so you know, these numbers are from ChEMBL document CHEMBL1139694.

Consider the following molecules and their measured IC50 readings.
Molecular target: C-X-C chemokine receptor type 2 (Homo sapiens, UniProt P25025)
Sequence (P25025 whole entry): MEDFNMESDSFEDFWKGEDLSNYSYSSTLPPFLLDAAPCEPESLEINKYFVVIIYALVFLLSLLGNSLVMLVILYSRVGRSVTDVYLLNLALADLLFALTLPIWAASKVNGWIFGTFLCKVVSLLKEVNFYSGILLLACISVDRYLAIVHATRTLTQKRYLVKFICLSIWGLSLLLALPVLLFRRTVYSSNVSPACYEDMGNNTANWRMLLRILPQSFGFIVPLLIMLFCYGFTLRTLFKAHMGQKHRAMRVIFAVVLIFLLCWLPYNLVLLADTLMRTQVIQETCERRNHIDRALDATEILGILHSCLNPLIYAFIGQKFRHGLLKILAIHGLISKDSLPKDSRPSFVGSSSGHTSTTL
Experiment: Displacement of [125I]IL8 from CXCR2 expressed in CHO cells
Format: cell-based
assay.endpoint: IC50

CCC(CC)(NS(=O)(=O)c1c(C)ccc(N=C(NC#N)Nc2ccccc2Br)c1O)N1CCOCC1 ... 6 nM (antagonist)
CCC(CC)(NS(=O)(=O)c1cccc(N/C(=N/C#N)Nc2ccccc2Br)c1O)N1CCOCC1 ... 12 nM (antagonist)
CCC(CC)(NS(=O)(=O)c1c(Cl)ccc(N=C(NC#N)Nc2ccccc2C)c1O)N1C[C@@H](C)O[C@@H](C)C1 ... 17 nM (antagonist)
Cc1ccccc1NC(=Nc1ccc(Cl)c(S(=O)(=O)N(C)C)c1O)NC#N ... 17 nM (antagonist)
CCC(CC)(NS(=O)(=O)c1c(Cl)ccc(N/C(=N/C#N)Nc2ccccc2Br)c1O)N1CCC(N)CC1 ... 22 nM (antagonist)
CCC(CC)(NS(=O)(=O)c1c(Cl)ccc(N/C(=N/C#N)Nc2ccccc2Br)c1O)N1C[C@@H](C)O[C@@H](C)C1 ... 9 nM (antagonist)
CN(C)S(=O)(=O)c1c(Cl)ccc(N=C(NC#N)Nc2cccc(Cl)c2F)c1O ... 29 nM (antagonist)
CCc1ccccc1NC(=Nc1ccc(Cl)c(S(=O)(=O)N(C)C)c1O)NC#N ... 15 nM (antagonist)
CN(C)S(=O)(=O)c1c(Cl)ccc(N=C(NC#N)Nc2ccccc2F)c1O ... 9 nM (antagonist)
CN(C)S(=O)(=O)c1c(Cl)ccc(N=C(NC#N)Nc2ccccc2C(F)(F)F)c1O ... 12 nM (antagonist)
Cc1ccc(N=C(NC#N)Nc2ccccc2Br)c(O)c1S(=O)(=O)N(C)C ... 7 nM (antagonist)
CCC(CC)(NS(=O)(=O)c1c(Cl)ccc(N/C(=N/C#N)Nc2ccccc2Br)c1O)N1CCC[C@@H]1C(=O)O ... 16 nM (antagonist)
CN(C)S(=O)(=O)c1c(Cl)ccc(N/C(=N/C#N)Nc2ccccc2-c2ccccc2)c1O ... 13 nM (antagonist)
CC(C)c1ccccc1N/C(=N\C#N)Nc1ccc(Cl)c(S(=O)(=O)N(C)C)c1O ... 112 nM (antagonist)
CN(C)S(=O)(=O)c1c(Cl)ccc(N/C(=N/C#N)Nc2ccccc2Br)c1O ... 5 nM (antagonist)
CN(C)S(=O)(=O)c1c(Cl)ccc(N/C(=N/C#N)Nc2ccccc2OCc2ccccc2)c1O ... 9 nM (antagonist)
CN(C)S(=O)(=O)c1c(C(F)(F)F)ccc(N/C(=N/C#N)Nc2ccccc2Br)c1O ... 7 nM (antagonist)
CN(C)S(=O)(=O)c1c(F)ccc(N/C(=N/C#N)Nc2ccccc2Br)c1O ... 4 nM (antagonist)
